Listed here: items and their measured pKi.
Target: Pyroglutamylated RF-amide peptide receptor (Homo sapiens, UniProt Q96P65)
Sequence (Q96P65 whole entry): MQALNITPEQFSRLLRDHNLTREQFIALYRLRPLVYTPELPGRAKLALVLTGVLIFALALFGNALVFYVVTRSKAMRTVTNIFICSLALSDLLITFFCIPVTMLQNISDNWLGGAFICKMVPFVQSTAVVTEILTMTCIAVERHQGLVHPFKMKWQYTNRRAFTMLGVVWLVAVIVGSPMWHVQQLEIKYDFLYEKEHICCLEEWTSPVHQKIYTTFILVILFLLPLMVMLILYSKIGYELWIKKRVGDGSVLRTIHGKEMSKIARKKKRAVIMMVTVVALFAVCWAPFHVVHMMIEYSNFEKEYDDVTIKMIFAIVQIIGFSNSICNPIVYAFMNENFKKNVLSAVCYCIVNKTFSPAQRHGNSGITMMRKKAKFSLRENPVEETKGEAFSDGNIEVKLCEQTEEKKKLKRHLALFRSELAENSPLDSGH
pKi: −log10 of the molar value.
parameter_measured: pKi

>  <smiles_record>
NC(N)=N/N=C/c1ccc(Cl)c(Cl)c1

>  <parameter_measured>
pKi

>  <measurement>
< 5.30

$$$$
>  <smiles_record>
NC1=NC=C(c2ccc(Cl)c(Cl)c2)CN1

>  <parameter_measured>
pKi

>  <measurement>
< 5.30

$$$$
